assay: qHTS assay for identifying genotoxic compounds that show differential cytotoxicity against isogenic chicken DT40 cell lines with known DNA damage response pathways - wild type cell line (AID 743012); settings: DT40 wild type chicken cells viability, CellTiter-Glo, 40 h; series mostly up to 68.4 µM; further: nearly all actives have a fitted effect of over 60% in size
Records with an inconclusive call do not appear. Activity calls are given as the source filed them. The call rests on the fitted dose curve; in most records, active means well fitted cell-killing curve with a large enough effect in the repeat runs; inconclusive means weak or mixed curves, or effect the other way; inactive means no such curve, though single readings can be large or run the other way.
PROPERTY_MEASURED: outcome

   compound_structure_string  observed_value
0    CC(C)(C)C(=O)NCCCC(=O)O        inactive
1                 C=CC(=O)CC        inactive
2    CCCCN1C(=O)c2ccccc2C1=O        inactive

###

biological target: Cytochrome P450 2C19 (Homo sapiens); assay: Cytochrome P450 Family 2 Subfamily C Member 19 (CYP2C19) small molecule antagonists: luciferase reporter qHTS assay (AID 1671197); conditions: P450-Glo CYP2C19 enzyme, luciferin luminescence, 1 h; series mostly up to 115 µM; further: nearly all actives have a fitted effect of over 65% in size
Results filed as inconclusive are left out. Calls of active or inactive are those of the source. The call rests on the fitted dose curve; in most records, active means well fitted inhibition curve with a large enough effect in the repeat runs; inconclusive means weak or mixed curves; inactive means no such curve, though single readings can be large or run the other way.
Parameter call: string, one of active, inactive

Below, 2 compounds whose answers are already recorded.
>>> df
                                  compound                               system  label_value
0  CNC(=O)c1c(I)c(NC(C)=O)c(I)c(C(=O)O)c1I  Cytochrome P450 2C19 (Homo sapiens)     inactive
1                  CC(C)(C)C(=O)NCCCC(=O)O  Cytochrome P450 2C19 (Homo sapiens)     inactive

// outcome(item) with item = CNC(C)=O
inactive

// outcome(item) with item = CCCCCCCCOCCC#N
inactive

// outcome(item) with item = C=CCCCCCCCCCCCCCC
active

// outcome(item) with item = O=C(O)P(=O)(O)O
inactive

// outcome(item) with item = O=Cc1ccc(C(=O)O)cc1
inactive

// outcome(item) with item = CC(=O)O[C@@H]1CC2C3CCc4cc(OC(=O)c5ccccc5)ccc4C3CCC2(C)[C@H]1OC(C)=O (stereo not given in full)
inactive

// outcome(item) with item = CCO/C=C1\N=C(c2ccccc2)OC1=O
active

// outcome(item) with item = CC(O)CCCCn1c(=O)c2c(ncn2C)n(C)c1=O (stereo not given)
inactive

// outcome(item) with item = C=CCCCCCCCCOC(C)=O
inactive

// outcome(item) with item = CCCCC(CC)COC(=O)CC#N (stereo not given)
active

// outcome(item) with item = CCCc1ncc(C(=O)O)s1
inactive

###

target: Glucocorticoid receptor (Homo sapiens) (UniProt P04150); experiment: qHTS assay to identify small molecule agonists of the glucocorticoid receptor (GR) signaling pathway (AID 720691); details: GR-bla HeLa, beta-lactamase reporter ratio, 18 h; series mostly up to 62.4 µM
Sequence (P04150 whole entry, looked up): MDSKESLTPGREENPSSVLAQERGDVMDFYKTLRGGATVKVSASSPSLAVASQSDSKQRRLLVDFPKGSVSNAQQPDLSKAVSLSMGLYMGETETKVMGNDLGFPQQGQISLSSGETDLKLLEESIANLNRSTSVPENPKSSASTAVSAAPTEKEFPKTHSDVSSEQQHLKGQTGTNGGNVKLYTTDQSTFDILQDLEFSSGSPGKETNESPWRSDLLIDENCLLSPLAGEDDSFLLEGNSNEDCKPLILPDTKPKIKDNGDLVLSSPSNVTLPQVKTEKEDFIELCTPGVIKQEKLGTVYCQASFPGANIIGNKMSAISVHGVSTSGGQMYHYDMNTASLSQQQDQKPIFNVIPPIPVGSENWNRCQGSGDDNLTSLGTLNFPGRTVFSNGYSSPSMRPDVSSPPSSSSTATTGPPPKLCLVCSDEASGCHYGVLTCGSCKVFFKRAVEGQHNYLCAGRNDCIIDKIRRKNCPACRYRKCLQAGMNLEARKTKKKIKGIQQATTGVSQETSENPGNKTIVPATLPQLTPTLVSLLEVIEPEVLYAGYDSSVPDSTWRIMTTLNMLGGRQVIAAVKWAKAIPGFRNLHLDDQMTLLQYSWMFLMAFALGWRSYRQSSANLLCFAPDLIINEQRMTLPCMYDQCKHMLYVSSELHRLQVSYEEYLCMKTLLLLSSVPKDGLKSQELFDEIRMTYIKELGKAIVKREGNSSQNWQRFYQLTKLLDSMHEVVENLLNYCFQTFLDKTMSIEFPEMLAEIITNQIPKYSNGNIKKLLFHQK
Results filed as inconclusive are left out. Activity calls are given as the source filed them. Calls follow the shape of the dose curve; as a rule, active = well fitted activation curve with a large enough effect in the signal ratio in the repeat runs (not every such curve was filed as active); inconclusive = weak or mixed curves, or effect the other way; inactive = no such curve, though single readings can be large or run the other way; the % refers to the signal ratio.
PROPERTY_MEASURED: activation

Sample answers from the record:
In [3]: df
Out[3]:
                                   compound                                    system  observed_value
0            O=C(O)Cc1ccccc1Oc1ccc(Cl)cc1Cl  Glucocorticoid receptor (Homo sapiens) (UniProt P04150)        inactive
1  CC(C)(Sc1cc(C(C)(C)C)c(O)c(C(C)(C)C)c1)Sc1cc(C(C)(C)C)c(O)c(C(C)(C)C)c1  Glucocorticoid receptor (Homo sapiens) (UniProt P04150)        inactive
2                   COC(=O)c1ccc(C(=O)O)cc1  Glucocorticoid receptor (Homo sapiens) (UniProt P04150)        inactive
3                         Cc1cc(O)c(Cl)cc1C  Glucocorticoid receptor (Homo sapiens) (UniProt P04150)        inactive
4  CCNC(=O)C(C)OC(=O)Nc1ccccc1 (stereo not drawn)  Glucocorticoid receptor (Homo sapiens) (UniProt P04150)        inactive

Field activation (entry Cc1ccc2cccnc2c1 ) reads inactive

Field activation (entry CN1C(CCl)Nc2cc(Cl)c(S(N)(=O)=O)cc2S1(=O)=O (stereo not drawn) ) reads inactive

Field activation (entry C=CCN1CCc2nc(N)sc2CC1 ) reads inactive

Field activation (entry CCCCN1C(=O)c2ccccc2C1=O ) reads inactive

Field activation (entry Cc1cc(C)c(N)c(Cl)c1 ) reads inactive

Field activation (entry CC[N+](C)(CC)CC ) reads inactive

Field activation (entry CCc1ncc(C)[nH]1 ) reads inactive

Field activation (entry CC(C)C[P+](C)(CC(C)C)CC(C)C ) reads inactive
